Measured TGI values are reported for all entries that follow.
- System: 786-0 renal
- procedure text: NCI tumour cell line growth inhibition, 48 h

| compound | test target | TGI |
| --- | --- | --- |
| CN1C/C(=C\c2ccc(C(=O)O)cc2)C(=O)/C(=C/c2ccc(C(=O)O)cc2)C1 | 786-0 renal | > 100 µM |
| N#C/C(=C1\OC(N)=C(c2ccc(Cl)cc2)C1=O)c1ccc(Cl)cc1 | 786-0 renal | 29.4 µM |
| Cc1ccc(S(=O)(=O)NC(=O)NC(CC(=O)O)C(=O)O)cc1 (stereo not drawn) | 786-0 renal | > 100 µM |
| Nc1ccn(C2CC3OCC3O2)c(=O)n1 (stereo not drawn) | 786-0 renal | > 100 µM |
| OC(CCl)CN1CC[N+]2(CC1)CC[N+]1(CCN(CC(O)CCl)CC1)CC2 (stereo not drawn) | 786-0 renal | > 50 µM |
| Cc1c2ccccc2c(C)n2c1nc1cc(Cl)c(Cl)cc12 | 786-0 renal | > 100 µM |
| C1CC[N-]CC1.CC(=N\O)/C(C)=N/O.CC(=N\O)/C(C)=N/O.C[CH-]C(C)O.[Co+2] | 786-0 renal | > 100 µM |
| C[C@H]1CC[C@@H]2[C@@H](C)[C@H]3[C@H](C[C@H]4[C@@H]5CC=C6C[C@@H](O)CC[C@]6(C)[C@H]5CC[C@]34C)N2C1 | 786-0 renal | > 100 µM |
| COc1cccc(N(CN2C(=O)CCC2OC)C(C)=O)c1 (stereo not drawn) | 786-0 renal | > 100 µM |
| Cc1ccc([N+]2=NC(c3ccccc3)=NN(c3ccccc3)C2)cc1 | 786-0 renal | > 100 µM |
| CC1/C(=N/O)CC(c2ccccc2)N(N=O)C1c1ccccc1 (stereo not drawn) | 786-0 renal | > 100 µM |
| CC(C)(C)OC(=O)NNCC(O)COc1ccccc1 (stereo not drawn) | 786-0 renal | > 100 µM |
| Nc1ccc(C(=O)O)cc1 | 786-0 renal | > 100 µM |

====

- Tested on: SK-OV-3 ovarian
- procedure text: NCI tumour cell line growth inhibition, 48 h
property: TGI

| compound | test target | reported measurement |
| --- | --- | --- |
| COC(=O)[C@@H](C)C[C@H](Cc1ccccc1)NC(=O)c1csc([C@@H](C[C@H](C(C)C)N(C)C(=O)[C@@H](NC(=O)[C@H]2CCCCN2C)C(C(F)(F)F)C(F)(F)F)OC(C)=O)n1 | SK-OV-3 ovarian | > 16.7 µM |
| CCOc1ccccc1NC(=O)C1=C(C)NC(C)=C(C(=O)Nc2ccccc2OCC)C1c1cccc([N+](=O)[O-])c1 | SK-OV-3 ovarian | > 100 µM |
| CCCCCCCCCCCCCCCCCCNc1nc(=O)n(C2CC(OP(=O)(O)OCC3OC(n4cc(F)c(=O)[nH]c4=O)CC3O)C(CO)O2)cc1F (stereo not drawn) | SK-OV-3 ovarian | > 100 µM |

====

- System: U251 CNS
- procedure text: NCI tumour cell line growth inhibition, 48 h
property: TGI (µM)

| compound | property | relation symbol | reported measurement |
| --- | --- | --- | --- |
| CSc1nc2ccc(C)cc2cc1/C=C1/C=C(c2ccccc2)NC1=O | TGI | = | 3.68 |
| Cc1nc(-n2nc(-c3ccccc3)cc2-c2ccccc2)sc1C(=O)/C=C/c1cccc([N+](=O)[O-])c1 | TGI | = | 32.5 |
| C=C1CC(O)C2C(=C)C(=O)OC2C2C(C)C(=O)CC12 (configuration not stated) | TGI | = | 59.1 |
| CC1=C(SCCC(=O)OC(C[Se]C2=C(C)C(=O)c3ccccc3C2=O)C(=O)NC(C)(C)C)C(=O)c2ccccc2C1=O (configuration not stated) | TGI | = | 1.57 |
| Cc1ccc(S(=O)(=O)NC(=O)NC(CC(=O)O)C(=O)O)cc1 (configuration not stated) | TGI | > | 100 |
| C=C1C(=O)OC2(C)CCC1CC1OC1(C)CCC=C(C)CCC2O (configuration not stated) | TGI | > | 100 |
| C1CC[N-]CC1.CC(=N\O)/C(C)=N/O.CC(=N\O)/C(C)=N/O.C[CH-]C(C)O.[Co+2] | TGI | = | 31.5 |

====

- Test system: T-47D breast
- procedure text: NCI tumour cell line growth inhibition, 48 h
Where a SMILES comes first, the peptide text is derived from it. [ ]: non-standard residue; d: D form.

| compound | TGI |
| --- | --- |
| C1CC[N-]CC1.CC(=N\O)/C(C)=N/O.CC(=N\O)/C(C)=N/O.C[CH-]C(C)O.[Co+2] | 41.1 µM |
| Cn1cccc1-c1cc(-c2ccccc2)nc(N)c1C#N | > 100 µM |
| CN1C/C(=C\c2cccs2)C(=O)/C(=C/c2cccs2)C1 | 92.6 µM |
| C=C(Cl)CN1c2ccccc2C=Cc2ccccc21 | 65.2 µM |
| CCCCOc1ccc(S(=O)(=O)/N=C(\NO)Nc2ccc(Cl)cc2)cc1 | 26.2 µM |
| COc1ccc(/C=C2/CSC/C(=C/c3ccc(OC)c(OC)c3)C2=O)cc1OC | 4.94 µM |
| O=S(=O)(Nc1ccc(Cl)c(Cl)c1)c1ccc(-c2cnc(C3CC3)o2)cc1 | 18.6 µM |
| COc1ccc(/C=C2\OC(=O)C(Cl)=C2c2ccc(OC)c(Cl)c2)cc1 | > 100 µM |
| CCOC(=O)N(O)c1ccc(/C=C/c2ccccc2)cc1 | 8.81 µM |
| COc1ccc2c(c1)[nH]c1c3ccc(OC)cc3oc(=O)c21 | > 100 µM |
| CCCCCCCCc1cc(O)ccc1O | 37.6 µM |
| CSCC[C@H](NC(=O)[C@@H](N)CC(N)=O)C(=O)N[C@@H](Cc1c[nH]c2ccccc12)C(=O)N[C@@H](CCC(N)=O)C(=O)N[C@@H](CCC(=O)O)C(=O)N[C@H](C(=O)NCC(=O)N[C@@H](CCCCN)C(=O)N[C@H](C)C(=O)O)C(C)C (H-NMWQEVGK[dA]-OH) | > 100 µM |
| Cc1oc2nc(N(C)C)n3cnnc3c2c1C | > 100 µM |
| COc1ccc(S(=O)(=O)Nc2cc(Sc3cccc4cccnc34)c(O)c3ccccc23)cc1 | 5.64 µM |
| CC(=O)/C(=C/N1CCN(C(=O)c2ccco2)C1=S)C(=O)c1ccccc1 | > 50 µM |
| O=[N+]([O-])c1ccc2nc(-c3ccc(Cl)cc3)[nH]c2c1 | 55.7 µM |
| C[C@@H](C[C@H](CCO)c1ccccc1)c1ccc2ccccc2c1 | 3.11 µM |
| Cc1nc2sc(C(=O)Nc3ccccc3)c(N)c2cc1C(=O)c1ccccc1 | > 50 µM |
| CC[C@@H](C(=O)[C@@H](C)[C@@H](O)[C@H](C)[C@@H]1O[C@@H]([C@@H](CC)C(=O)O)CC[C@@H]1C)[C@H]1O[C@]2(C=C[C@@H](O)[C@]3(CC[C@@](C)([C@H]4CC[C@](O)(CC)[C@H](C)O4)O3)O2)[C@H](C)C[C@@H]1C | 16.7 µM |
| Cc1c2ccccc2c(C)n2c1nc1cc(Cl)c(Cl)cc12 | > 100 µM |
| CNC(=O)C1OC(n2cnc3c(NCc4cccc(I)c4)nc(Cl)nc32)C(O)C1O (stereo unspecified) | 61.8 µM |
| Nc1c(C(=O)O)nnc2cc(Cl)ccc12 | > 100 µM |
| Fc1ccc2c(c1)nc1n2C(c2c(F)cccc2F)SC1 (stereo unspecified) | > 100 µM |
| COc1ccc(/C=C(/c2ccc(OC)cc2)c2c(Cl)cc(Cl)c(/C(=C\c3ccc(OC)cc3)c3ccc(OC)cc3)c2N=Nc2ccccc2)cc1 | > 100 µM |
| O=C(Cn1c(=O)oc2ccc(C(=O)c3cccc(Cl)c3)cc21)c1ccccc1 | > 100 µM |
| CN(C)Cc1cc(C(C)(C)C)cc(CN(C)C)c1O | > 100 µM |
| CCN(CCC#N)C(=O)Nc1ccccc1 | > 100 µM |
| O=C1/C(=C/c2ccc(O)cc2)Oc2ccccc21 | > 100 µM |
| C[C@H]1CC[C@@H]2[C@@H](C)[C@H]3[C@H](C[C@H]4[C@@H]5CC=C6C[C@@H](O)CC[C@]6(C)[C@H]5CC[C@]34C)N2C1 | > 100 µM |
| Cc1cc2nc(-c3ccc(O)c(O)c3)n(Cc3ccc(O)c(O)c3)c2cc1C | > 100 µM |
| Nc1ccc(C(=O)O)cc1 | > 100 µM |
| Cn1cc(-c2csc(-c3cn(C(=O)OC(C)(C)C)c4ccccc34)n2)c2cccnc21 | 15.6 µM |
| Cc1cc(O)c(C(C)C)cc1C(=S)Nc1ccc(Cl)cc1 | 29.2 µM |
| CCN(CC)C(=O)c1cc([N+](=O)[O-])c(=O)n2c1[nH]c1ccccc12 | > 100 µM |
| CCOC(=O)C1CCCN1C(=O)c1ccccc1Cl (stereo unspecified) | > 100 µM |
| Clc1ncnc2c1nc(C#Cc1ccccc1)n2C1CCCCO1 (stereo unspecified) | 4.55 µM |
| CCOC(=O)CN1C(=O)C(=O)N(c2ccc(OC)c3ccccc23)C1=O | > 100 µM |
| COc1cc2c(=O)n(CC3CCCCC3)c3c4cc[nH]c4ncc3c2cc1OC | > 50 µM |
| Nc1ccn(CC(O)c2cc3ccccc3[nH]2)c(=O)n1 (stereo unspecified) | > 100 µM |
| CCc1n[nH]c(=O)[nH]1 | > 100 µM |
| CC1CN=C(c2ccc(CN3CCC(CCCC4CCN(Cc5ccc(C6=NCC(C)N6)cc5)CC4)CC3)cc2)N1 (stereo unspecified) | > 100 µM |
